test system: Fibroblast; experiment: Multiplex assay against human fibroblast; assay type: toxicity, cell-based; settings: 48 h, 1 µM, compound concentration 1 uM, replicate 2
Decision: Population Membrane Permeable-Phenotype (%) compared against 6%; not below it gives True, below it gives False.

Solved entries:
Say whether CC(C)(O)C(=O)N1CCN(c2ccc(C(F)(F)F)c(C3=C(c4c[nH]c5ccccc45)C(=O)NC3=O)c2)CC1 shows Population Membrane Permeable-Phenotype (%) of 6% or more.
False

// next record Cc1cc(-c2ccc3c(c2)CC[C@H]3N2CC3(CCN(C(=O)Cc4cn5cc(C)sc5n4)CC3)C2)ncn1
True

---
Say whether COc1cc(Nc2ncc3c(n2)-c2ccc(Cl)cc2C(c2c(F)cccc2OC)=NC3)ccc1C(=O)O shows Population Membrane Permeable-Phenotype (%) of 6% or more.
True

// next record CCn1c(-c2nc3cc(C(=O)N4CCCC(N)C4)ccc3n2C)cc2ccccc21.Cl (stereo not drawn)
False

// next record COC(c1ccccc1)(c1ccccc1)[C@H](Oc1nc(C)cc(C)n1)C(=O)O
False

// next record COc1cc2nc(N3CCN(C(=O)c4ccco4)CC3)nc(N)c2cc1OC.Cl [PRAZOSIN HYDROCHLORIDE]
True

// next record COc1cc(C(=O)N2CC[C@@H](O)[C@@H](N)C2)cc2nc(-c3cc4ccccc4n3CC3CC3)n(C)c12.Cl
False

---

Assign Population Healthy Nuclei (%) to each entry below.
tested on: HEK-293T; test: Multiplex assay against HEK293T; assay type: toxicity, cell-based; conditions: human, 48 h, 10 µM, compound concentration 10 uM, replicate 1
Non-standard residues stand in square brackets, D forms with d. Residues, ends and D or L forms follow the SMILES beside them.
Give bare numbers, in %.

Requested field: Population Healthy Nuclei (%). Item: O=c1ccc2ccc(OCCCCN3CCN(c4cccc5sccc45)CC3)cc2[nH]1 [BREXPIPRAZOLE]
30

Could you tell me Population Healthy Nuclei (%) for each of these compounds? They are listed below.
1. O=C(O)CCC/C=C\CC1C(O)CC(O)C1/C=C/C(O)COc1cccc(Cl)c1 (stereo unspecified) [CLOPROSTENOL]
2. Cl.Cl.OCCOCCN1CCN(C(c2ccccc2)c2ccc(Cl)cc2)CC1 (stereo unspecified) [HYDROXYZINE HYDROCHLORIDE]
3. CC(C)C[C@@H]1NC(=O)[C@@H](C(C)C)NC(=O)[C@@H]2CCCN2C(=O)[C@@H](CC(=O)O)NC(=O)[C@@H](Cc2c[nH]c3ccccc23)NC1=O [BQ-123] (cyclo(L[dW][dD]P[dV]))
4. COC(c1ccccc1)(c1ccccc1)[C@H](Oc1nc(C)cc(C)n1)C(=O)O [AMBRISENTAN]
5. CCc1nn2c(C)cc(C)nc2c1Cc1ccc(-c2nnc(C3CCNCC3)o2)cc1

1: 76; 2: 76; 3: 77; 4: 77; 5: 72

Could you tell me Population Healthy Nuclei (%) for each of these compounds? They are listed below.
1. Cc1cc(-c2ccc3c(c2)CC[C@H]3N2CC3(CCN(C(=O)Cc4cn5cc(C)sc5n4)CC3)C2)ncn1 [PF-5190457]
2. COc1cc2nc(N3CCN(C(=O)c4ccco4)CC3)nc(N)c2cc1OC.Cl [PRAZOSIN HYDROCHLORIDE]
3. COc1cc(Nc2ncc3c(n2)-c2ccc(Cl)cc2C(c2c(F)cccc2OC)=NC3)ccc1C(=O)O [ALISERTIB]
4. CCC(=O)OCC(=O)[C@@]1(OC(=O)CC)[C@@H](C)C[C@H]2[C@@H]3CCC4=CC(=O)C=C[C@]4(C)[C@@]3(Cl)[C@@H](O)C[C@@]21C [BECLOMETHASONE DIPROPIONATE]
5. COc1c(Nc2ccc(S(C)(=O)=O)nc2C)ncnc1OC1CCN(C(=O)OC(C)C)CC1 [ADP-597]

[77, 75, 78, 72, 73]

---

Assign Population Normal (%) to each entry below.
test system: Fibroblast; test: Multiplex assay against human fibroblast; format: toxicity, cell-based; details: 48 h, 1 µM, compound concentration 1 uM, replicate 1
Numbers only, in %.

Could you tell me Population Normal (%) for each of these compounds? They are listed below.
1. CC(F)(F)CN1CCOc2c(nn(-c3ccccc3Cl)c2-c2ccc(Cl)cc2)C1=O
2. Cc1nn(C)c2nc(NNC(=O)Nc3cc(Cl)nc(Cl)c3)cc(C(C)C)c12
3. COc1cc2nc(N3CCN(C(=O)c4ccco4)CC3)nc(N)c2cc1OC.Cl [PRAZOSIN HYDROCHLORIDE]
4. COc1ccc2c(c1OCc1ccccc1)C[C@@H](C(=O)O)N(C(=O)C(c1ccccc1)c1ccccc1)C2

98
98
96
96

---

tested on: HEK-293T; test: Multiplex assay against HEK293T; format: toxicity, cell-based; conditions: human, 48 h, 1 µM, compound concentration 1 uM, replicate 1
Assign Population Tubulin-Different-Phenotype (%) to each entry below.
Numbers only, in %.

Some solved cases for reference:
Report Population Tubulin-Different-Phenotype (%) for COc1ccc2[nH]c(I)c(CCNC(C)=O)c2c1 [IODOMELATONIN] tested on HEK-293T.
16

// next record Cc1sc2c(c1C)C(c1ccc(Cl)cc1)=N[C@H](CC(=O)OC(C)(C)C)c1nnc(C)n1-2
10

Could you tell me Population Tubulin-Different-Phenotype (%) for each of these molecules? They are listed below.
1. N[C@](CC1c2ccccc2Oc2ccccc21)(C(=O)O)[C@H]1C[C@@H]1C(=O)O
2. COCCn1c(C)c(C)s/c1=N\C(=O)C1C(C)(C)C1(C)C
3. CN1C[C@H](C(=O)N[C@]2(C)O[C@@]3(O)[C@@H]4CCCN4C(=O)[C@H](Cc4ccccc4)N3C2=O)C[C@@H]2c3cccc4[nH]cc(c34)C[C@H]21.CS(=O)(=O)O [DIHYDROERGOTAMINE MESYLATE]
4. O=c1nc2[nH]c3ccccc3nc-2c(=O)[nH]1 [ALLOXAZINE]
5. CCn1c(-c2nc3cc(C(=O)N4CCCC(N)C4)ccc3n2C)cc2ccccc21.Cl (stereo not drawn)
6. Cn1cc(C(=O)OCC2CCN(CCNS(C)(=O)=O)CC2)c2ccccc21

1: 13; 2: 14; 3: 11; 4: 13; 5: 17; 6: 10

---

system: HEK-293T; test: Multiplex assay against HEK293T; format: toxicity, cell-based; conditions: human, 24 h, 10 µM, compound concentration 10 uM, replicate 1
Decision: Population Mitochondria Different-Phenotype (%) compared against 40%; not below it gives Y, below it gives N.

Solved entries:
Say whether CSc1nc(NC2CCCC2)c([N+](=O)[O-])c(NC2CCCC2)n1 [GS-39783] shows Population Mitochondria Different-Phenotype (%) of 40% or more.
N

// next record CCCCCCNC(=O)Nc1ccc(S(=O)(=O)Nc2ccc(CCNC[C@H](O)COc3ccc(O)cc3)cc2)cc1 [L-755507]
Y

// next record COCCn1c(C)c(C)s/c1=N\C(=O)C1C(C)(C)C1(C)C
Y

// next record C[C@@H]1CC(=O)Nc2cccc(-c3ccc4c(c3)c(-c3cnn(C)c3)nn4C)c2N1
Y

// next record O=c1nc2[nH]c3ccccc3nc-2c(=O)[nH]1 [ALLOXAZINE]
N

// next record COc1cc2nc(N3CCN(C(=O)COc4c(OC)cccc4C(C)C)CC3)nc(N)c2cc1OC.Cl.Cl
Y

// next record CN(C)C(=O)Cn1cc(-c2ccc(-c3nnc4ccccn34)cc2)cn1
Y

// next record O=C(O)CCC/C=C\CC1C(O)CC(O)C1/C=C/C(O)COc1cccc(Cl)c1 (stereo not drawn) [CLOPROSTENOL]
Y

---
Say whether COc1ccc2[nH]c(I)c(CCNC(C)=O)c2c1 [IODOMELATONIN] shows Population Mitochondria Different-Phenotype (%) of 40% or more.
N

// next record CN1CCC(C(=O)c2cccc(NC(=O)c3c(F)cc(F)cc3F)n2)CC1
Y

// next record S=C(NCCCc1c[nH]cn1)NCCCN(Cc1ccc(Cl)c(Cl)c1)c1ccc(Br)cn1
Y

// next record COCCCN1CCC(NC(=O)c2cc(Cl)c(N)c3c2OCC3)CC1 [PRUCALOPRIDE]
Y

// next record CC(C)(O)C(=O)N1CCN(c2ccc(C(F)(F)F)c(C3=C(c4c[nH]c5ccccc45)C(=O)NC3=O)c2)CC1
Y

// next record O=C(NCCNCC(O)COc1ccc(O)cc1)N1CCOCC1.O=C(NCCNCC(O)COc1ccc(O)cc1)N1CCOCC1.O=C(O)/C=C/C(=O)O (stereo not drawn) [XAMOTEROL FUMARATE]
N

// next record Cn1cc(C(=O)OCC2CCN(CCNS(C)(=O)=O)CC2)c2ccccc21
Y

---

system: Fibroblast; assay: Multiplex assay against human fibroblast; type: toxicity, cell-based; details: 24 h, 10 µM, compound concentration 10 uM, replicate 2
ENDPOINT: Population Fragmented Nuclei (%)
Give bare numbers, in %.

Some solved cases for reference:
Report Population Fragmented Nuclei (%) for O=c1nc2[nH]c3ccccc3nc-2c(=O)[nH]1 tested on Fibroblast.
45

// next record COc1ccc2c(c1OCc1ccccc1)C[C@@H](C(=O)O)N(C(=O)C(c1ccccc1)c1ccccc1)C2
17

// next record COc1cc2nc(N3CCN(C(=O)c4ccco4)CC3)nc(N)c2cc1OC.Cl [PRAZOSIN HYDROCHLORIDE]
35

// next record COCCn1c(C)c(C)s/c1=N\C(=O)C1C(C)(C)C1(C)C
40

// next record C[C@H](NC(=O)CNC(=O)c1cccc(Cl)c1)c1ccccc1
33

// next record CN1CCN(c2ccc(Nc3c4ccccc4nc4ccccc34)cc2)CC1.Cl.Cl.O
69

// next record O=C(O)CCC/C=C\CC1C(O)CC(O)C1/C=C/C(O)COc1cccc(Cl)c1 (centres undefined)
28

// next record CN(C)C/C=C/C(=O)Nc1ccc(C(=O)N2CCCC(Nc3ncc(Cl)c(-c4c[nH]c5ccccc45)n3)C2)cc1 (centres undefined)
30

Could you tell me Population Fragmented Nuclei (%) for each of these molecules? They are listed below.
1. COC(c1ccccc1)(c1ccccc1)[C@H](Oc1nc(C)cc(C)n1)C(=O)O
2. Cc1cc(-c2ccc3c(c2)CC[C@H]3N2CC3(CCN(C(=O)Cc4cn5cc(C)sc5n4)CC3)C2)ncn1
3. CN(C)C(=O)Cn1cc(-c2ccc(-c3nnc4ccccn34)cc2)cn1

[46, 25, 36]

Could you tell me Population Fragmented Nuclei (%) for each of these molecules? They are listed below.
1. Cn1cc(C(=O)OCC2CCN(CCNS(C)(=O)=O)CC2)c2ccccc21
2. Cc1nn(C)c2nc(NNC(=O)Nc3cc(Cl)nc(Cl)c3)cc(C(C)C)c12
3. CN1CCC(C(=O)c2cccc(NC(=O)c3c(F)cc(F)cc3F)n2)CC1

1: 40; 2: 28; 3: 30

Could you tell me Population Fragmented Nuclei (%) for each of these molecules? They are listed below.
1. OCCCNc1cc(-c2ccnc(Nc3cccc(Cl)c3)n2)ccn1
2. COc1ccc2[nH]c(I)c(CCNC(C)=O)c2c1
3. S=C(NCCCc1c[nH]cn1)NCCCN(Cc1ccc(Cl)c(Cl)c1)c1ccc(Br)cn1

[63, 38, 27]

Could you tell me Population Fragmented Nuclei (%) for each of these molecules? They are listed below.
1. CN1C[C@H](C(=O)N[C@]2(C)O[C@@]3(O)[C@@H]4CCCN4C(=O)[C@H](Cc4ccccc4)N3C2=O)C[C@@H]2c3cccc4[nH]cc(c34)C[C@H]21.CS(=O)(=O)O [DIHYDROERGOTAMINE MESYLATE]
2. Cc1cc(O)c(-c2ccc([C@@H](C)CN(C)C)cc2)c2c1[nH]c(=O)c1sccc12

1. 35
2. 30
